- EXPERIMENTAL_PARAMETERS: in acetonitrile, 298.15 K

{"columns": ["LINE_NOTATION", "solubility (mole fraction)"],
 "data": [
  ["COC1=CC(=O)C[C@@H](C)[C@]12Oc1c(Cl)c(OC)cc(OC)c1C2=O", 0.00536]
]}

----------
- EXPERIMENTAL_PARAMETERS: in NMP, 288.15 K

{"columns": ["LINE_NOTATION", "solubility (mole fraction)"],
 "data": [
  ["COC1=CC(=O)C[C@@H](C)[C@]12Oc1c(Cl)c(OC)cc(OC)c1C2=O", 0.0369]
]}

----------
- EXPERIMENTAL_PARAMETERS: in DMF, 293.15 K
EXPERIMENTAL_ENDPOINT: solubility (mole fraction)

{"columns": ["LINE_NOTATION", "MEASUREMENT"],
 "data": [
  ["COC1=CC(=O)C[C@@H](C)[C@]12Oc1c(Cl)c(OC)cc(OC)c1C2=O", 0.00703]
]}
